assay: Rat pharmacokinetics; assay type: in vivo; conditions: male Sprague-Dawley rats, plasma, route not stated in table (IV or oral gavage 10 mL/kg of 0.3 or 0.6 mg/mL)
observed.property: Cmax
# output: number + unit

Cmax lookup needed for N#Cc1ccc(COc2ccnc(N3CCN(Cc4nc5ccc(C(=O)O)cc5n4Cc4cncs4)[C@@H]4C[C@@H]43)n2)c(F)c1 , thanks. 15.5 ng/mL

Cmax lookup needed for N#Cc1ccc(COc2cccc([C@@H]3CCN(Cc4nc5ccc(C(=O)O)cc5n4Cc4cncs4)[C@@H]4C[C@@H]43)n2)c(F)c1 (single isomer, unassigned) , thanks. 282 ng/mL

Cmax lookup needed for N#Cc1ccc(COc2cccc(N3CCN(Cc4nc5ccc(C(=O)O)cc5n4Cc4cncs4)[C@H]4C[C@H]43)n2)c(F)c1 (single isomer, unassigned) , thanks. 44.1 ng/mL

Cmax lookup needed for N#Cc1ccc(COc2cccc(N3CCN(Cc4nc5ccc(C(=O)O)cc5n4C[C@@H]4CCO4)[C@@H]4C[C@@H]43)n2)c(F)c1 (single isomer, unassigned) , thanks. 64.5 ng/mL

Cmax lookup needed for CCn1nncc1Cn1c(CN2CCN(c3cccc(OCc4ccc(C#N)cc4F)n3)[C@H]3C[C@H]32)nc2ccc(C(=O)O)cc21 , thanks. 9.62 ng/mL

Cmax lookup needed for C[C@]1(c2ccc(C#N)cc2F)Oc2cccc(N3CCN(Cc4nc5ccc(C(=O)O)cc5n4Cc4cncs4)[C@@H]4C[C@@H]43)c2O1 , thanks. 58.3 ng/mL

----------
For each entry below, report its EC50 value.
molecular target: human GLP-1R receptor (Homo sapiens, UniProt P43220); test: GLP-1R low expression cell assay (cAMP TR-FRET, CHO-K1_hGLP-1Rlow_clone10); details: CHO-K1_hGLP-1Rlow_clone10 cells, percent activation relative to control GLP-1 peptide
Sequence (P43220 24-463): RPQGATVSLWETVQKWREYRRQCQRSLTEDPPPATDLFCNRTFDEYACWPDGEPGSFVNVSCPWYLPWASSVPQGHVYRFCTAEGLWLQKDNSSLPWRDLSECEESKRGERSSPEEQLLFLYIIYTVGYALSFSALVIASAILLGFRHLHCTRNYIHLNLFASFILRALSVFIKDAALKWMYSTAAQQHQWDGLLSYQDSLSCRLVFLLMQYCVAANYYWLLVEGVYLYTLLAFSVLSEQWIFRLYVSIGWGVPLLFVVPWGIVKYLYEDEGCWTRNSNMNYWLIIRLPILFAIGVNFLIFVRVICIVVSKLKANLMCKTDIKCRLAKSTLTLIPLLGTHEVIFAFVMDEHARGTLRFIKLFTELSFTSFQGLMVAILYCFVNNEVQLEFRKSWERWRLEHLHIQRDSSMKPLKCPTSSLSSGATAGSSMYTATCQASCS

EC50 lookup needed for N#Cc1ccc(COc2cccc(N3CCN(Cc4nc5ccc(C(=O)O)cc5n4Cc4cncs4)[C@@H]4C[C@@H]43)n2)c(F)c1 (single isomer, unassigned) [Compound 1] , thanks. < 5 nM

EC50 lookup needed for CO[C@H](C)Cn1c(CN2CCC(c3cccc(OCc4ccc(C#N)cc4F)n3)C3CC32)nc2ccc(C(=O)O)cc21 (stereo partly drawn) [Compound 21] , thanks. 5 to 50 nM

EC50 lookup needed for CC1(c2ccc(C#N)cc2F)Oc2cccc(N3CCN(Cc4nc5ccc(C(=O)O)cc5n4CC4(C#N)CC4)C4CC43)c2O1 (stereo not drawn) [Compound 40] , thanks. < 5 nM

EC50 lookup needed for C[C@@]1(c2ccc(C#N)cc2F)Oc2cccc(N3CCN(Cc4nc5ccc(C(=O)O)cc5n4Cc4cncs4)[C@@H]4C[C@@H]43)c2O1 [Compound 37] , thanks. < 5 nM

EC50 lookup needed for N#Cc1ccc(COc2cccc([C@@H]3CCN(Cc4nc5ccc(C(=O)O)cc5n4Cc4cncs4)[C@@H]4C[C@@H]43)n2)c(F)c1 (single isomer, unassigned) [Compound 5] , thanks. 5 to 50 nM

EC50 lookup needed for N#Cc1ccc(COc2cccc([C@H]3CCN(Cc4nc5ccc(C(=O)O)cc5n4Cc4cncs4)[C@H]4C[C@@H]34)n2)c(F)c1 (single isomer, unassigned) [Compound 14] , thanks. 5 to 50 nM

EC50 lookup needed for C[C@]1(c2ccc(C#N)cc2F)Oc2cccc(N3CCN(Cc4nc5ccc(C(=O)O)cc5n4Cc4cncs4)[C@H]4C[C@H]43)c2O1 [Compound 36] , thanks. 5 to 50 nM

EC50 lookup needed for N#Cc1ccc(COc2cccc(N3CCC(Cc4nc5ccc(C(=O)O)cc5n4Cc4cncs4)C4CC43)n2)c(F)c1 (stereo not drawn) [Compound 46] , thanks. 50 to 100 nM

EC50 lookup needed for N#Cc1ccc(COc2cccc(N3CCN(Cc4nc5ccc(C(=O)O)cc5n4Cc4cncs4)[C@H]4C[C@H]43)n2)c(F)c1 (single isomer, unassigned) [Compound 2] , thanks. 50 to 100 nM

EC50 lookup needed for CC1(c2ccc(C#N)cc2F)Oc2cccc(N3CCN(Cc4nc5ccc(C(=O)O)cc5n4Cc4cncs4)C4CC43)c2O1 (stereo not drawn) [Compound 34] , thanks. < 5 nM

EC50 lookup needed for C[C@]1(c2ccc(C#N)cc2F)Oc2cccc(N3CCN(Cc4nc5ccc(C(=O)O)cc5n4Cc4cncs4)[C@@H]4C[C@@H]43)c2O1 [Compound 38] , thanks. > 100 nM

EC50 lookup needed for CO[C@H](C)Cn1c(CN2CCN(c3cccc4c3OC(C)(c3ccc(C#N)cc3F)O4)C3CC32)nc2ccc(C(=O)O)cc21 (stereo partly drawn) [Compound 39] , thanks. 50 to 100 nM

----------
assay: Passive permeability and efflux ratio (Caco-2); format: in vitro ADME; details: human, pH 7.4; Caco-2, efflux ratio = Papp (B-to-A)/Papp (A-to-B); read-out: ER
Where efflux ratio at 120 min, 5 μM equals or exceeds 2, the correct label is True; where it does not, the label is False.

Say whether CC1(c2ccc(C#N)cc2F)Oc2cccc(N3CCN(Cc4nc5ccc(C(=O)O)cc5n4CC4(C#N)CC4)C4CC43)c2O1 (centres unmarked) [Compound 40] shows efflux ratio at 120 min, 5 μM of 2 or more. True

Say whether N#Cc1ccc(COc2cccc([C@@H]3CCN(Cc4nc5ccc(C(=O)O)cc5n4Cc4cncs4)[C@@H]4C[C@@H]43)n2)c(F)c1 (single isomer, unassigned) [Compound 5] shows efflux ratio at 120 min, 5 μM of 2 or more. False

Say whether N#Cc1ccc(COc2cccc(N3CCN(Cc4nc5ccc(C(=O)O)cc5n4Cc4cncs4)[C@@H]4C[C@@H]43)n2)c(F)c1 (single isomer, unassigned) [Compound 1] shows efflux ratio at 120 min, 5 μM of 2 or more. True

Say whether CC1(c2ccc(C#N)cc2F)Oc2cccc(N3CCN(Cc4nc5ccc(C(=O)O)cc5n4Cc4cncs4)C4CC43)c2O1 (centres unmarked) [Compound 34] shows efflux ratio at 120 min, 5 μM of 2 or more. False

Say whether CC1(c2ccc(C#N)cc2F)Oc2cccc(C3CCN(Cc4nc5ccc(C(=O)O)cc5n4Cc4cncs4)CC3)c2O1 (centres unmarked) [Compound 18] shows efflux ratio at 120 min, 5 μM of 2 or more. False

----------
experiment: Rat pharmacokinetics; assay type: in vivo; parameters: concentration or dose not given beside the values; conditions: male Sprague-Dawley rats, plasma, route not given
Where AUC equals or exceeds 70 ng·h/mL, the correct label is TRUE; where it does not, the label is FALSE.

Say whether N#Cc1ccc(COc2cccc(N3CCN(Cc4nc5ccc(C(=O)O)cc5n4C[C@@H]4CCO4)[C@@H]4C[C@@H]43)n2)c(F)c1 (single isomer, unassigned) shows AUC of 70 ng·h/mL or more. TRUE

Say whether N#Cc1ccc(COc2ccnc(N3CCN(Cc4nc5ccc(C(=O)O)cc5n4Cc4cncs4)[C@@H]4C[C@@H]43)n2)c(F)c1 shows AUC of 70 ng·h/mL or more. FALSE

Say whether N#Cc1ccc(COc2cccc([C@H]3CCN(Cc4nc5ccc(C(=O)O)cc5n4Cc4cncs4)[C@H]4C[C@@H]34)n2)c(F)c1 (single isomer, unassigned) shows AUC of 70 ng·h/mL or more. FALSE

Say whether N#Cc1ccc(COc2cccc(N3CCN(Cc4nc5ccc(C(=O)O)cc5n4Cc4cncs4)[C@H]4C[C@H]43)n2)c(F)c1 (single isomer, unassigned) shows AUC of 70 ng·h/mL or more. FALSE

Say whether CC1(c2ccc(C#N)cc2F)Oc2cccc(N3CCN(Cc4nc5ccc(C(=O)O)cc5n4CC4(C#N)CC4)C4CC43)c2O1 (centres unmarked) shows AUC of 70 ng·h/mL or more. FALSE

Say whether CCn1nncc1Cn1c(CN2CCN(c3cccc(OCc4ccc(C#N)cc4F)n3)[C@H]3C[C@H]32)nc2ccc(C(=O)O)cc21 shows AUC of 70 ng·h/mL or more. FALSE

----------
For each entry below, report its pEC50 value.
molecular target: human GLP-1R receptor (Homo sapiens); experiment: GLP-1R low expression cell assay (cAMP TR-FRET, CHO-K1_hGLP-1Rlow_clone10); conditions: CHO-K1_hGLP-1Rlow_clone10 cells, percent activation relative to control GLP-1 peptide
pEC50: −log10 of the molar value.

pEC50 lookup needed for N#Cc1ccc(COc2cccc(N3CCN(Cc4nc5ccc(C(=O)O)cc5n4C[C@@H]4CCO4)[C@H]4CC43)n2)c(F)c1 (single isomer, unassigned) , thanks. 7.00 to 7.30

pEC50 lookup needed for CC1(c2ccc(C#N)cc2F)Oc2cccc(N3CCN(Cc4nc5ccc(C(=O)O)cc5n4C[C@@H]4CCO4)C4CC43)c2O1 (stereo partly drawn) , thanks. > 8.30

pEC50 lookup needed for N#Cc1ccc(COc2cccc([C@H]3CCN(Cc4nc5ccc(C(=O)O)cc5n4Cc4cncs4)[C@@H]4C[C@H]34)n2)c(F)c1 (single isomer, unassigned) , thanks. > 8.30

pEC50 lookup needed for N#Cc1ccc(COc2ccnc(N3CCN(Cc4nc5ccc(C(=O)O)cc5n4Cc4cncs4)[C@@H]4C[C@@H]43)n2)c(F)c1 , thanks. 7.30 to 8.30

pEC50 lookup needed for C[C@@]1(c2ccc(C#N)cc2F)Oc2cccc(N3CCN(Cc4nc5ccc(C(=O)O)cc5n4Cc4cncs4)[C@H]4C[C@H]43)c2O1 , thanks. < 7.00

pEC50 lookup needed for CC1(c2ccc(C#N)cc2F)Oc2cccc(N3CCN(Cc4nc5ccc(-c6nnc(C(F)(F)F)[nH]6)cc5n4Cc4cncs4)C4CC43)c2O1 (stereo not drawn) , thanks. < 7.00

pEC50 lookup needed for N#Cc1ccc(COc2ccnc(N3CCN(Cc4nc5ccc(C(=O)O)cc5n4Cc4cncs4)[C@H]4C[C@H]43)n2)c(F)c1 , thanks. < 7.00

pEC50 lookup needed for N#Cc1ccc(COc2cccc(N3CCN(Cc4nc5ccc(-c6nnc(C(F)(F)F)[nH]6)cc5n4Cc4cncs4)[C@@H]4C[C@@H]43)n2)c(F)c1 (racemic) , thanks. < 7.00

pEC50 lookup needed for CCn1nncc1Cn1c(CN2CCN(c3cccc(OCc4ccc(C#N)cc4F)n3)[C@@H]3C[C@@H]32)nc2ccc(C(=O)O)cc21 , thanks. < 7.00
